assay: Viability qHTS for spleen associated tyrosine kinase inhibitor (SYKi) naive MV4-11 cells (AID 1963823); details: MV4-11 AML viability, CellTiter-Glo luminescence, 72 h; series mostly up to 45 µM; also: nearly all actives have a fitted effect of over 40% in size
Results filed as inconclusive are left out. Active and inactive are the calls of the source. Calls follow the shape of the dose curve; as a rule, active = well fitted cell-killing curve with a large enough effect; inconclusive = small, poorly fitted or top-dose-only effect, or effect the other way; inactive = no such curve, though single readings can be large or run the other way.
Classes used: active, inactive

[
  {
    "compound": "Cn1c(=O)cc(N2CCCC(N)C2)n(Cc2ccccc2C#N)c1=O (stereo unspecified)",
    "className": "inactive"
  },
  {
    "compound": "CC1CCC2(C=O)C(CO)=CCCC2C1(C)CC(=O)O (stereo unspecified)",
    "className": "inactive"
  },
  {
    "compound": "Cc1cccc(Nc2nc(-c3ccncc3)cs2)c1",
    "className": "active"
  },
  {
    "compound": "C=C1C(O)C[C@@H]2C(C(=O)O)=CO[C@@H](O[C@@H]3O[C@H](CO)[C@@H](O)[C@H](O)[C@H]3OC(=O)c3ccc(O)cc3)[C@H]12 (stereo partly specified)",
    "className": "inactive"
  },
  {
    "compound": "CCS(=O)c1nc(-c2cccc(OCc3ccccc3)c2)cc(C(F)(F)F)n1 (stereo unspecified)",
    "className": "active"
  },
  {
    "compound": "CCN(CC)CCc1nc(-c2ccccc2)no1",
    "className": "inactive"
  },
  {
    "compound": "C/C=C(\\C)C(=O)OCC1OC(OC2OC(CO)C(O)C(O)C2O)C(O)C(O)C1O (stereo unspecified)",
    "className": "inactive"
  },
  {
    "compound": "Cc1cc(O)cc(O[C@@H]2O[C@H](CO)[C@@H](O)[C@H](O)[C@H]2O)c1",
    "className": "inactive"
  },
  {
    "compound": "CC(C)C[C@@H](N)C(=O)O",
    "className": "inactive"
  },
  {
    "compound": "CN(C)CCN1C(=O)c2ccccc2N(C)c2ccccc21",
    "className": "inactive"
  },
  {
    "compound": "C=C(C(=O)O)C1CCC2(C)CCC(O)C(=C)C2C1 (stereo unspecified)",
    "className": "inactive"
  }
]

* * *

experiment: Cellular viability qHTS for adrenocortical cancer (ACC) cell line NCI-H295R (AID 1963990); details: CellTiter-Glo ATP luminescence, 48 h; series mostly up to 46.1 µM; also: nearly all actives have a fitted effect of over 60% in size
Inconclusive results are not listed. Active and inactive are the calls of the source. The call rests on the fitted dose curve; in most records, active means well fitted cell-killing curve with a large enough effect; inconclusive means small, poorly fitted or top-dose-only effect; inactive means flat fitted curve, though single readings scatter.
Classes used: 1 (active), 0 (inactive)

[
  {
    "molecule": "Nc1nc(OCc2ccccc2)c2[nH]cnc2n1",
    "className": 0
  },
  {
    "molecule": "Cc1c(-c2c(-c3ccc(F)o3)sc3ncnc(O[C@@H](Cc4ccccc4OCc4ccnn4CC(F)(F)F)C(=O)O)c23)ccc(OCCN2CCN(C)CC2)c1Cl",
    "className": 1
  },
  {
    "molecule": "O=c1[nH]c(=O)n(C2CCCO2)cc1F (stereo not given)",
    "className": 0
  },
  {
    "molecule": "CC(C)[C@H](CO)Nc1nc(Nc2cccc(Cl)c2)c2ncn(C(C)C)c2n1",
    "className": 1
  },
  {
    "molecule": "N#Cc1ccc(N(Cc2ccc(Br)cc2)n2cnnc2)cc1",
    "className": 0
  }
]

Ref: PubChem BioAssay (NCATS)
